Biological target: T1, G4P (artificial (RSM derived from human …))
T1 chain: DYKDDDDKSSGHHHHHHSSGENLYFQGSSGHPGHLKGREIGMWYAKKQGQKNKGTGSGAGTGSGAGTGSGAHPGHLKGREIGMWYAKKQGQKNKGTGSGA
Experiment: smTIRFM (koff/kon); kon 0.43e9 M-1 s-1, koff 0.67 s-1; EMSA: DNA annealed in 200 mM Tris pH 7.4, 100 mM KCl, 1 mM EDTA; binding 10 min at 25 C, native PAGE; smTIRFM: 100 pM tethered DNA, 100-5000 pM protein, buffer
Details: protein: recombinant; tags: N-terminal FLAG-6xHis; label: 3' biotin on strand 2; 18 bp duplex with 3' ssDNA tail folded as G4, mixed topology
parameter.measured: Kd (nM)
Reply with just the number (in nM).

In: # query: Kd of entry hTelG4 (smTIRFM tethering) (mixed) DNA 1: TGGCGACGGCAGCGAGGCTTAGGGTTAGGGTTAGGGTTTAGGGTTAGGG DNA 2: GCCTCGCTGCCGTCGCCA
Out: 1.6
